Data origin: the METLIN SMRT retention time set (Domingo-Almenara et al. 2019)

- runDescription: gradient 5% acetonitrile 3 min, to 50% in 2 min, to 85% in 15 min, held 3 min, 100 µL/min
- reportedConditions: column: Zorbax Extend-C18 2.1 x 50 mm; eluents: water / acetonitrile, 0.1% formic acid
outcomeMeasure: RP-LC retention time (s)
Expressed in s, but write only the number.

input: Could you tell me which RP-LC retention time is on file for `Cn1ncc2c3ccccc3n(CC(=O)NCCCN3CCC(N4CCCCC4)CC3)c2c1=O` ?
output: 527

input: `COc1ccc(-n2c(=O)n(C)c(=O)c3cc(C(=O)Nc4ccc(C)c(F)c4)cnc32)cc1` ?
output: 965

input: Moving on to the next compound: COc1ccc(C2Cn3cnc(C(=O)N4CCC(C(=O)NCC5CC5)CC4)c3CO2)cc1 (centres undefined)
output: 649

input: # iterate: `COc1ccc(CC(=O)Nc2ccc(-c3nc(Cn4cc(C)cn4)c(C)o3)cc2)cc1`
output: 889

input: Cool, now `O=c1c2scc(-c3ccc(F)cc3)c2ncn1Cc1ccc(Br)cc1`
output: 1180

input: Same for `CCN1c2ccccc2C(=O)NC12CCN(C(=O)NCc1ccc(C)cc1)CC2`
output: 796

input: Another compound: COc1ccc(OC)c(NC(=O)NC2CCN(c3cc(C)cc(C)c3)C2=O)c1 (centres undefined)
output: 887

input: Now give it for `O=S(=O)(c1ccccc1)c1nnn2c1nc(N1CCN(c3ccccn3)CC1)c1ccccc12` too.
output: 677

input: Thanks! And `O=NN(CCCl)C(=O)NCc1ccc[n+]([O-])c1` ?
output: 587
